System: coxsackie B3 virus
Assay: Antiviral CPE assay in mammalian cell culture
Format: cell-based
Conditions: Enterovirus B, B3, read-out: inhibition capacity (IC50) B3
pIC50: −log10 of the molar value.
measured-parameter: pIC50

chemical-smiles: COc1ccc(-c2c(C)nn3c(NCc4ccnnc4)nc(C)nc23)cc1OC
measured-parameter: pIC50
test-value: > 6.00

chemical-smiles: COc1ccc(CNc2nc(C)nc3c(-c4ccc(OC)c(OC)c4)c(C)nn23)cc1
measured-parameter: pIC50
test-value: > 6.00

chemical-smiles: COc1ccc(-c2c(C)nn3c(NCc4ccc(S(N)(=O)=O)cc4)nc(C)nc23)cc1OC
measured-parameter: pIC50
test-value: > 7.00

chemical-smiles: COc1ccc(CNc2nc(C)nc3c(-c4ccc(OC)c(OC)c4)c(C)nn23)cn1
measured-parameter: pIC50
test-value: > 7.00

chemical-smiles: COc1ccc(-c2c(C)nn3c(NCc4ccc(Cl)cc4)nc(C)nc23)cc1OC
measured-parameter: pIC50
test-value: > 7.00

**Query** Report pIC50 for COc1ccc(-c2c(C)nn3c(NCc4cccnc4)nc(C)nc23)cc1OC please.
**Result** > 7.00

**Query** // next record COc1ccc(-c2c(C)nn3c(NCc4ccccc4)nc(C)nc23)cc1OC
**Result** > 7.00

**Query** Same question for CCC(=O)NS(=O)(=O)c1ccc(CNc2nc(C)nc3c(-c4ccc(OC)c(OC)c4)c(C)nn23)cc1 please.
**Result** < 6.00

----------
Tested on: Enterovirus 68
Test: Antiviral CPE assay in mammalian cell culture
Assay type: cell-based
Conditions: Enterovirus D, EV68; prevention of viral CPE, mammalian cell culture, Enterovirus 68; read-out: inhibition capacity (IC50) EV68
measured-parameter: IC50

**Query** So what's the measured IC50 for this one? COc1ccc(-c2c(C)nn3c(NCc4ccc(C)nc4)nc(C)nc23)cc1OC
**Result** < 100 nM

----------
Biological target: PI3Kα (Homo sapiens, UniProt P42336)
Sequence (P42336 whole entry, species assumed): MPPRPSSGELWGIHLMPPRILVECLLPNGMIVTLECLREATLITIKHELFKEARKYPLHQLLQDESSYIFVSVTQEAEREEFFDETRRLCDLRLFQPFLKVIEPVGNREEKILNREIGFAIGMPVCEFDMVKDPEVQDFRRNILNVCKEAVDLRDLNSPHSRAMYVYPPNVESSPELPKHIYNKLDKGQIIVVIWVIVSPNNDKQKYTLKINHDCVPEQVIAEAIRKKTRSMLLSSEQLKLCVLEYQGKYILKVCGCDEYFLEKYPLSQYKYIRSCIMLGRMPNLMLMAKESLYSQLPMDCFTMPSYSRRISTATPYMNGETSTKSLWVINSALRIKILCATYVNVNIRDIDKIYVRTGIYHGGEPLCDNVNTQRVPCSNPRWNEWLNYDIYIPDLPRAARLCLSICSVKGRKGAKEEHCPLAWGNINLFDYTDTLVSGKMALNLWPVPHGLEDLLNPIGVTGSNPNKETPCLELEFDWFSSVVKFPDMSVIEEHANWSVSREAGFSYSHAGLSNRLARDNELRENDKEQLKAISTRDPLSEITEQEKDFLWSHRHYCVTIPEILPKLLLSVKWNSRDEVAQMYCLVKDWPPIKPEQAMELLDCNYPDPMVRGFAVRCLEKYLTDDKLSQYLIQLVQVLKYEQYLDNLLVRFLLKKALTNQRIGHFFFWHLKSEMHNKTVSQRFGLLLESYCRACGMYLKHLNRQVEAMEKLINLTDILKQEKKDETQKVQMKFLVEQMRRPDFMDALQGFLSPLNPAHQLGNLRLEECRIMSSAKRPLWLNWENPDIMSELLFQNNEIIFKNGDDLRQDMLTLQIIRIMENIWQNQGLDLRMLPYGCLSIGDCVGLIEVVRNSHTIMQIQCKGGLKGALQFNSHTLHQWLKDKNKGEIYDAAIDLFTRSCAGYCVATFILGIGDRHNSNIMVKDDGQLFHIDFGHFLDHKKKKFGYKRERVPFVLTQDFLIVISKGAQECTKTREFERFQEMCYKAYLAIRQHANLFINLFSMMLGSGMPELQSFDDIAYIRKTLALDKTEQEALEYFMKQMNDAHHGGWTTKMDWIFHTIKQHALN
Sequence (P27986 whole entry partner, species assumed): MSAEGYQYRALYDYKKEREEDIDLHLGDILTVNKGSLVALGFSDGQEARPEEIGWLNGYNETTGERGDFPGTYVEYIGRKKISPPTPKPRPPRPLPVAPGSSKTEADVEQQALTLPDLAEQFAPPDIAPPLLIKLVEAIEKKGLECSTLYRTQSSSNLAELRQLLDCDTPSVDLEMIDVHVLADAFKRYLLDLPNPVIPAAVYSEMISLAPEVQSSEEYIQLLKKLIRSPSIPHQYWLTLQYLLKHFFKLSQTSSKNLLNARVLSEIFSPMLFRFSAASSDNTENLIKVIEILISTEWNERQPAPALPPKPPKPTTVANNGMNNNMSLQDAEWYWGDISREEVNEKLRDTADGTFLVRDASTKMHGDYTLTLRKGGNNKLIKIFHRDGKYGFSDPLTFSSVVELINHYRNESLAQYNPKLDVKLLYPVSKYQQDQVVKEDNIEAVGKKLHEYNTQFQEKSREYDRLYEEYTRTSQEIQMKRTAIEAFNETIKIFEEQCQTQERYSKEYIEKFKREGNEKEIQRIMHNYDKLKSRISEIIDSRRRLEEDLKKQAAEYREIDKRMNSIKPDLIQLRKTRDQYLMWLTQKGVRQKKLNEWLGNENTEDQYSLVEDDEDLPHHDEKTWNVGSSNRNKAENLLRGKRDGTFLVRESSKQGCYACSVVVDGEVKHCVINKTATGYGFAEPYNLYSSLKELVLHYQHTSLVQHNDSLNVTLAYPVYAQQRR
measured-parameter: IC50 (µM)
# unit: µM | format: bare number

**Query** Dear colleague, I am looking for the recorded IC50 of the following molecule: COc1ccc(-c2c(C)nn3c(NCc4ccncc4)nc(C)nc23)cc1OC
**Result** 7.3

----------
Test system: coxsackie B2 virus
Assay: Antiviral CPE assay in mammalian cell culture
Type: cell-based
Settings: read-out: inhibition capacity (IC50) B2
pIC50: −log10 of the molar value.
Overview of recorded pIC50 for various compounds

compound: COc1ccc(-c2c(C)nn3c(NCC4CCCCC4)nc(C)nc23)cc1OC
pIC50: > 6.00
//
compound: COc1ccc(CNc2nc(C)nc3c(-c4ccc(OC)c(OC)c4)c(C)nn23)cn1
pIC50: > 7.00
//
compound: COc1ccc(-c2c(C)nn3c(NCC4CCCO4)nc(C)nc23)cc1OC (centres unmarked)
pIC50: > 6.00
//
compound: COc1ccc(-c2c(C)nn3c(NCc4ccnnc4)nc(C)nc23)cc1OC
pIC50: > 6.00
//
compound: COc1ccc(-c2c(C)nn3c(NCc4cnco4)nc(C)nc23)cc1OC
pIC50: > 7.00

Lab note: next compound to report on.
**Query** Which pIC50 value belongs to COc1ccc(-c2c(C)nn3c(NCc4ccc(NC(C)=O)cc4)nc(C)nc23)cc1OC ?
**Result** > 7.00
